- Subject of test: HMGCR (TM1-8)-GFP (Cricetulus griseus)
- Protocol: HMGCR (TM1-8)-GFP fluorescent assay (high-content imaging) in CHG cells
- Measurement parameters: read-out: Mean (HMGCR (TM1-8)-GFP signal relative to 0 μM = 100)
Experimental readout: remaining activity at 0.625 µM
# answer = value followed by unit

Report remaining activity at 0.625 µM for CCC(O)(CC)CCCC[C@@H](C)C1CCC2C3C(CC[C@@]21C)[C@@]1(C)CC[C@H](O)C(C)(C)C1=C[C@@H]3O (stereo partly shown) please.
52.3%

Can you check C[C@H](CCCO)C1CCC2C3C(CC[C@@]21C)[C@@]1(C)CC[C@H](O)C(C)(C)C1=C[C@@H]3O (stereo partly shown) next?
101%

Can you check C[C@H](CCCCO)C1CCC2C3C(CC[C@@]21C)[C@@]1(C)CC[C@H](O)C(C)(C)C1=C[C@@H]3O (stereo partly shown) next?
92.9%

Can you check C=CCC(O)(CC=C)CCCCC[C@@H](C)C1CCC2C3C(CC[C@@]21C)[C@@]1(C)CC[C@H](O)C(C)(C)C1=C[C@@H]3O (stereo partly shown) next?
91.6%

Can you check C=CCC(O)CC[C@@H](C)C1CCC2C3C(CC[C@@]21C)[C@@]1(C)CC[C@H](O)C(C)(C)C1=C[C@@H]3O (stereo partly shown) next?
93.6%

Can you check C=CCC(O)CCC[C@@H](C)C1CCC2C3C(CC[C@@]21C)[C@@]1(C)CC[C@H](O)C(C)(C)C1=C[C@@H]3O (stereo partly shown) next?
67.9%

Can you check CC(O)CCCC[C@@H](C)C1CCC2C3C(CC[C@@]21C)[C@@]1(C)CC[C@H](O)C(C)(C)C1=C[C@@H]3O (stereo partly shown) next?
72.6%

Can you check CCC(O)(CC)CCCCC[C@@H](C)C1CCC2C3C(CC[C@@]21C)[C@@]1(C)CC[C@H](O)C(C)(C)C1=C[C@@H]3O (stereo partly shown) next?
55.5%

Can you check C=CCC(O)CCCCC[C@@H](C)C1CCC2C3C(CC[C@@]21C)[C@@]1(C)CC[C@H](O)C(C)(C)C1=C[C@@H]3O (stereo partly shown) next?
58.7%

Can you check C[C@H](CCCC(=O)O)C1CCC2C3C(CC[C@@]21C)[C@@]1(C)CC[C@H](O)C(C)(C)C1=C[C@@H]3O (stereo partly shown) next?
97.7%

Can you check C[C@H](CCC(=O)O)C1CCC2C3C(CC[C@@]21C)[C@@]1(C)CC[C@H](O)C(C)(C)C1=C[C@@H]3O (stereo partly shown) next?
105%

Can you check CCC(O)CC[C@@H](C)C1CCC2C3C(CC[C@@]21C)[C@@]1(C)CC[C@H](O)C(C)(C)C1=C[C@@H]3O (stereo partly shown) next?
88.2%

Can you check C[C@H](CCC(C)(C)O)C1CCC2C3C(CC[C@@]21C)[C@@]1(C)CC[C@H](O)C(C)(C)C1=C[C@@H]3O (stereo partly shown) next?
92.2%

* * *

- Subject of test: HMGCR (TM1-8)-GFP (Cricetulus griseus, UniProt P00347)
- Sequence (P00347 1-346): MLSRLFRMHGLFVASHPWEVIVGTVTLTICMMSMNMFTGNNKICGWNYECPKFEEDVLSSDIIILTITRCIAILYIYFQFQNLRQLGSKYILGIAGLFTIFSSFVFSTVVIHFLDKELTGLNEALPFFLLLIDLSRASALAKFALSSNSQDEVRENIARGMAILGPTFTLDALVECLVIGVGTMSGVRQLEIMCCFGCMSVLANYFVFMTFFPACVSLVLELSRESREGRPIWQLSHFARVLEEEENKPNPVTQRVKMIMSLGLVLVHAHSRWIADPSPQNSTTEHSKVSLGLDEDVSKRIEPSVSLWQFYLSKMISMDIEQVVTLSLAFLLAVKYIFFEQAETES
- Protocol: HMGCR (TM1-8)-GFP fluorescent assay (high-content imaging) in CHG cells
- Measurement parameters: read-out: Mean (HMGCR (TM1-8)-GFP signal relative to 0 μM = 100)
Under this convention, true denotes remaining activity at 0.625 µM strictly below 70% and false denotes remaining activity at 0.625 µM at or above 70%.

# strict comparison: is reported remaining activity at 0.625 µM < 70%? input = C[C@H](CCCCC(=O)O)C1CCC2C3C(CC[C@@]21C)[C@@]1(C)CC[C@H](O)C(C)(C)C1=C[C@@H]3O (stereo partly shown)
false

Can you check CC(O)CCC[C@@H](C)C1CCC2C3C(CC[C@@]21C)[C@@]1(C)CC[C@H](O)C(C)(C)C1=C[C@@H]3O (stereo partly shown) next?
false

Can you check CC(O)CC[C@@H](C)C1CCC2C3C(CC[C@@]21C)[C@@]1(C)CC[C@H](O)C(C)(C)C1=C[C@@H]3O (stereo partly shown) next?
false

Can you check C[C@H](CCCCCC(C)(C)O)C1CCC2C3C(CC[C@@]21C)[C@@]1(C)CC[C@H](O)C(C)(C)C1=C[C@@H]3O (stereo partly shown) next?
true

Can you check CCC(O)CCC[C@@H](C)C1CCC2C3C(CC[C@@]21C)[C@@]1(C)CC[C@H](O)C(C)(C)C1=C[C@@H]3O (stereo partly shown) next?
true

Can you check C[C@H](CCCCC(C)(C)O)C1CCC2C3C(CC[C@@]21C)[C@@]1(C)CC[C@H](O)C(C)(C)C1=C[C@@H]3O (stereo partly shown) next?
true

Can you check C[C@H](CCCC(C)(C)O)C1CCC2C3C(CC[C@@]21C)[C@@]1(C)CC[C@H](O)C(C)(C)C1=C[C@@H]3O (stereo partly shown) next?
true

Can you check CC(O)CCCCC[C@@H](C)C1CCC2C3C(CC[C@@]21C)[C@@]1(C)CC[C@H](O)C(C)(C)C1=C[C@@H]3O (stereo partly shown) next?
true

Can you check CCC(O)(CC)CC[C@@H](C)C1CCC2C3C(CC[C@@]21C)[C@@]1(C)CC[C@H](O)C(C)(C)C1=C[C@@H]3O (stereo partly shown) next?
false

Can you check COCCC[C@@H](C)C1CCC2C3C(CC[C@@]21C)[C@@]1(C)CC[C@H](O)C(C)(C)C1=C[C@@H]3O (stereo partly shown) next?
false

Can you check CCC(O)CCCC[C@@H](C)C1CCC2C3C(CC[C@@]21C)[C@@]1(C)CC[C@H](O)C(C)(C)C1=C[C@@H]3O (stereo partly shown) next?
true

Can you check C[C@H](CCCCCCO)C1CCC2C3C(CC[C@@]21C)[C@@]1(C)CC[C@H](O)C(C)(C)C1=C[C@@H]3O (stereo partly shown) next?
false

Can you check COC(=O)CC[C@@H](C)C1CCC2C3C(CC[C@@]21C)[C@@]1(C)CC[C@H](O)C(C)(C)C1=C[C@@H]3O (stereo partly shown) next?
false
